Target: T1, human LAG-3 ECD (antigen protein of the affinity test) (human, UniProt P18627 23-450)
T1 sequence: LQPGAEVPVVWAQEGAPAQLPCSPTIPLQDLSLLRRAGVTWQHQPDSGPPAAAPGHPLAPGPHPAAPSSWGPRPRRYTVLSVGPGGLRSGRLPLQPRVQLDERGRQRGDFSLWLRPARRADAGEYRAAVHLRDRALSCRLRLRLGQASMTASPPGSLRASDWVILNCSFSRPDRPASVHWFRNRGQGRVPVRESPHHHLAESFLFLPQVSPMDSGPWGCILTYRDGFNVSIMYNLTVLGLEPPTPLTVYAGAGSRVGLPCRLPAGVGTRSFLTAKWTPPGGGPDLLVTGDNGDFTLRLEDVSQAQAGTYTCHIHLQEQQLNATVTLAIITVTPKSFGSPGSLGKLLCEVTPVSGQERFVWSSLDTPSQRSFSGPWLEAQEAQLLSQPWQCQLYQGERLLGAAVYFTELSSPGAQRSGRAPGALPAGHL
Experiment: SPR (CM5 chip), antibody captured by anti-human Fc IgG, antigen protein in flow, 1:1 model
pKd: −log10 of the molar value.
measured_endpoint: pKd

binder: 556F6B8 mouse-human chimeric antibody (antibody, V domains shown, also called mAb123-556F6B8) VH: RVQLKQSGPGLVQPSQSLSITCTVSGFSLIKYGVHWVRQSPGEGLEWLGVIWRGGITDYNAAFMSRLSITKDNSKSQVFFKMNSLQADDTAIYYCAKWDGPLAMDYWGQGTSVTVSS VL: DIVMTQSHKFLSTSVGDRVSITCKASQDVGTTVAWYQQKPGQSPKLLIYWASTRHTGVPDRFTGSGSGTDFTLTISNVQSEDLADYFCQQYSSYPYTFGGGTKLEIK
result_number: 8.57
--
binder: 405B8H3-1 (D→E) hot-spot mutated humanized antibody (antibody, V domains shown) VH: QVQLVQSGAEVKKPGASVKVSCKASGYTFTDYEMHWVRQAPGQGLEWMGATDPETGNSAYNQKFKGRVTMTRDTSTSTVYMELSSLRSEDTAVYYCISTGWNDWGQGTTVTVSS VL: DIQMTQSPSSLSASVGDRVTITCKASQDINSYLSWFQQKPGKAPKSLIYRADRLLEGVPSRFSGSGSGTDFTLTISSLQPEDFATYYCLQYDEFPYTFGQGTKLEIK
result_number: 8.69
--
binder: 556F6B8-3 (D→E) hot-spot mutated humanized antibody (antibody, V domains shown) VH: QVQLQESGPGLVKPSETLSLTCTVSGFSLIKYGVHWIRQPPGKGLEWIGVIWRGGITDYNAAFMSRVTISKDTSKSQVSLKLSSVTAADTAVYYCARWEGPLAMDYWGQGTTVTVSS VL: DIQLTQSPSFLSASVGDRVTITCKASQDVGTTVAWYQQKPGKAPKLLIYWASTRHTGVPSRFSGSGSGTEFTLTISSLQPEDFATYYCQQYSSYPYTFGQGTKLEIK
result_number: 7.47
--
binder: 405B8H3 mouse-human chimeric antibody (antibody, V domains shown, also called mAb103-405B8H3) VH: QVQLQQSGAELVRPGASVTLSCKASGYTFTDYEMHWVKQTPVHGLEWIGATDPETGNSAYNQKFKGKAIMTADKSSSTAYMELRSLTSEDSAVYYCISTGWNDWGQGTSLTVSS VL: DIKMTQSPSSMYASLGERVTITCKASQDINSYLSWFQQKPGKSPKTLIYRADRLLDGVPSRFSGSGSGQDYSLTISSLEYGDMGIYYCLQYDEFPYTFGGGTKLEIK
result_number: 8.51
